Biological target: T1, Human IFNβ (mature human interferon beta) (human, UniProt P01574 22-187)
T1 construct: Recombinant human IFNβ (Peprotech for SPR); In some functional assays it is endogenous IFNβ secreted by primary human cells; also called hIFN-β; recombinant human IFNβ
T1 sequence (P01574 22-187): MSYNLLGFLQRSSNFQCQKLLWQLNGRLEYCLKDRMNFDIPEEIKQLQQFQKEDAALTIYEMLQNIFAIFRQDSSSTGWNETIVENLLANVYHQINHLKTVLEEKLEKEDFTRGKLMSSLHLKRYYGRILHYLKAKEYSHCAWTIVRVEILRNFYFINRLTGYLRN
Assay: Octet (BLI) response rank; method not described
Would you kindly list Response rank (Octet) for each of these binders?
Numbers only, in rank.

State recorded Response rank (Octet) for all listed binders.
1. CTI-AF23 (antibody, human IgG1, kappa, V domains shown) VH: QVQLVQSGAEVKKPGSSVKVSCKASGYTFSRYWMHWVRQAPGQGLEWMGHIDPSDSYTYYNQKFKGRVTITADESTSTAYMELSSLRSEDTAVYYCARWDYGNLLFEYWGQGTLVTVSS VL: DIQMTQSPSSLSASVGDRVTITCRTSQDISSYLNWYQQKPGKAFKLLIYTTSRLRSGVPSRFSGSGSGTDFTLTISSLQPEDFATYYCQQSTILPLTFGGGTKVEIKR
2. CTI-AF27 (antibody, human IgG1, kappa, V domains shown) VH: QVQLVQSGAEVKKPGSSVKVSCKASGYTFSRYWMHWVRQAPGQGLEWMGHIDPSDSYTYYNQKFKGRVTITADESTSTAYMELSSLRSEDTAVYYCARWDYGNLLFEYWGQGTLVTVSS VL: DIQMTQSPSSLSASVGDRVTITCRTSQDIDNFLQWYQQKPGKAFKLLIFSTSKLHSGVPSRFSGSGSGTDFTLTISSLQPEDFATYYCQQGIILPITFGGGTKVEIKR
3. CTI-AF16 (antibody, human IgG1, kappa, V domains shown) VH: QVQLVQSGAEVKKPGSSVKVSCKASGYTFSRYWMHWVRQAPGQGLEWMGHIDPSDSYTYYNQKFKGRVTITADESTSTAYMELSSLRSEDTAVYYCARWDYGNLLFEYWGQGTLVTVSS VL: DIQMTQSPSSLSASVGDRVTITCRTSQDISNYLNWYQQKPGKAFKLLIYTTSRLRSGVPSRFSGSGSGTDFTLTISSLQPEDFATYYCQQGIILPITFGGGTKVEIKR
4. CTI-AF1 (antibody, human IgG1, kappa, V domains shown, Humanized IgG1; The C-terminal K of the heavy chain is printed as optional, '(K)'; also called anti-IFNβ antibody; humanized IgG1 antibody against interferon beta) VH: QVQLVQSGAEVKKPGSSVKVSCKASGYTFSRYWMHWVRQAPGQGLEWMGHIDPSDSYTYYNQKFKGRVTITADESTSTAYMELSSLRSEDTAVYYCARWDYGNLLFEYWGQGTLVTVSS VL: DIQMTQSPSSLSASVGDRVTITCRTSQDIGNYLNWYQQKPGKAFKLLIYSTSRLHSGVPSRFSGSGSGTDFTLTISSLQPEDFATYYCQQGIILPITFGGGTKVEIKR
5. CTI-AF21 (antibody, human IgG1, kappa, V domains shown) VH: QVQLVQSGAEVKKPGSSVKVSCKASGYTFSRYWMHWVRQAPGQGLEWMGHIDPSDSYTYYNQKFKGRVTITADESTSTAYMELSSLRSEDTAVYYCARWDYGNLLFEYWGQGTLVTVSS VL: DIQMTQSPSSLSASVGDRVTITCRTSQDIDNFLQWYQQKPGKAFKLLIFSTSKLHSGVPSRFSGSGSGTDFTLTISSLQPEDFATYYCQQGIVLPITFGGGTKVEIKR

Ans:
1. 9
2. 10
3. 2
4. 1
5. 11
